System: Trichophyton mentagrophytes
procedureSummary: Antifungal activity against Trichophyton mentagrophytes PMC 6531 after 72 hrs by CLSI broth microdilution method
Format: functional
conditionsUsed: PMC 6531, 72 h
attributeMeasured: log10 of MIC80 (log10 of the value in µg/mL)
Record value = log10 of MIC80 given in µg/mL.

O=C(OC(Cn1ccnc1)c1ccc(F)cc1)N1CCN(c2ccc([N+](=O)[O-])cc2)CC1 (stereo not given)
1.81
O=C(OC(Cn1ccnc1)c1ccc(Cl)cc1)N1CCN(c2ccc([N+](=O)[O-])cc2)CC1 (stereo not given)
1.51
O=C(OC(Cn1ccnc1)c1ccc(F)cc1)N1CCN(C(=O)c2ccco2)CC1 (stereo not given)
1.81
O=C(O[C@@H](Cn1ccnc1)c1ccc(Cl)cc1)N1CCN(c2ccc(Cl)cc2)CC1
0.90
O=C(OC(Cn1ccnc1)c1ccc(Cl)cc1)N1CCN(C(=O)c2ccco2)CC1 (stereo not given)
2.11
CCS(=O)(=O)N1CCN(c2ccc(NC(=O)OC(Cn3ccnc3)c3ccc(F)cc3)cc2)CC1 (stereo not given)
2.11

Incoming: What value of log10 of MIC80 has been recorded for this entry: O=C(OC(Cn1ccnc1)c1ccc(F)cc1)N1CCN(c2ncccc2[N+](=O)[O-])CC1 (stereo not given)
Outgoing: 1.51

Incoming: Next compound: O=C(O[C@H](Cn1ccnc1)c1ccc(Cl)cc1)N1CCN(c2ccc(Cl)cc2)CC1
Outgoing: 0.90

Incoming: Next compound: O=C(OC(Cn1ccnc1)c1ccc(Cl)cc1)N1CCN(c2ccc(Cl)cc2)CC1 (stereo not given)
Outgoing: 0.90

Incoming: Next compound: O=C(Nc1ccc(N2CCN(c3ccc(Cl)cc3)CC2)cc1)O[C@H](Cn1ccnc1)c1ccc(F)cc1
Outgoing: 2.11

Incoming: Next compound: O=C(OC(Cn1ccnc1)c1ccc(F)cc1)N1CCN(c2ccc(Cl)cc2)CC1 (stereo not given)
Outgoing: 0.90

Incoming: Next compound: O=C(Nc1ccc(N2CCN(c3ccc(Cl)cc3)CC2)cc1)O[C@@H](Cn1ccnc1)c1ccc(F)cc1
Outgoing: 0.60

Incoming: Next compound: O=C(Nc1ccc(N2CCN(c3ccc(Cl)cc3)CC2)cc1)OC(Cn1ccnc1)c1ccc(F)cc1 (stereo not given)
Outgoing: 0.90

Incoming: Next compound: OC(Cn1cncn1)(Cn1cncn1)c1ccc(F)cc1F
Outgoing: 0.60

Incoming: Next compound: O=C(Nc1ccc(N2CCN(C(=O)c3ccco3)CC2)cc1)OC(Cn1ccnc1)c1ccc(F)cc1 (stereo not given)
Outgoing: 2.11

* * *

Test system: Nakaseomyces glabratus
procedureSummary: Antifungal activity against Candida glabrata PMC 0853R after 48 hrs by CLSI broth microdilution method
Format: functional
attributeMeasured: MIC50 (µg/mL)
Unit µg/mL implied. Number only.

The cases that follow already have their MIC50 on record.
O=C(Nc1ccc(N2CCN(c3ccc(Cl)cc3)CC2)cc1)O[C@@H](Cn1ccnc1)c1ccc(F)cc1
2
O=C(O[C@H](Cn1ccnc1)c1ccc(Cl)cc1)N1CCN(c2ccc(Cl)cc2)CC1
4
O=C(OC(Cn1ccnc1)c1ccc(Cl)cc1)N1CCN(c2ccc(Cl)cc2)CC1 (stereo not given)
4
OC(Cn1cncn1)(Cn1cncn1)c1ccc(F)cc1F [FLUCONAZOLE]
32

Then there is this compound:
Incoming: What value of MIC50 has been recorded for this entry: O=C(Nc1ccc(N2CCN(c3ccc(Cl)cc3)CC2)cc1)OC(Cn1ccnc1)c1ccc(F)cc1 (stereo not given)
Outgoing: 4

Values from ChEMBL document CHEMBL3286116
